Data origin, for the record: patent US4897391A

Biological target: 5-lipoxygenase (Mus musculus, UniProt P48999)
Construct: Preincubate MC-9 cells (0.39 ml at 7.5×10^6 cells/ml) without or with test compound; endogenous in cells; host or cells: MC-9 murine mast cell clone (interleukin-3-dependent)
Sequence (P48999 1-674): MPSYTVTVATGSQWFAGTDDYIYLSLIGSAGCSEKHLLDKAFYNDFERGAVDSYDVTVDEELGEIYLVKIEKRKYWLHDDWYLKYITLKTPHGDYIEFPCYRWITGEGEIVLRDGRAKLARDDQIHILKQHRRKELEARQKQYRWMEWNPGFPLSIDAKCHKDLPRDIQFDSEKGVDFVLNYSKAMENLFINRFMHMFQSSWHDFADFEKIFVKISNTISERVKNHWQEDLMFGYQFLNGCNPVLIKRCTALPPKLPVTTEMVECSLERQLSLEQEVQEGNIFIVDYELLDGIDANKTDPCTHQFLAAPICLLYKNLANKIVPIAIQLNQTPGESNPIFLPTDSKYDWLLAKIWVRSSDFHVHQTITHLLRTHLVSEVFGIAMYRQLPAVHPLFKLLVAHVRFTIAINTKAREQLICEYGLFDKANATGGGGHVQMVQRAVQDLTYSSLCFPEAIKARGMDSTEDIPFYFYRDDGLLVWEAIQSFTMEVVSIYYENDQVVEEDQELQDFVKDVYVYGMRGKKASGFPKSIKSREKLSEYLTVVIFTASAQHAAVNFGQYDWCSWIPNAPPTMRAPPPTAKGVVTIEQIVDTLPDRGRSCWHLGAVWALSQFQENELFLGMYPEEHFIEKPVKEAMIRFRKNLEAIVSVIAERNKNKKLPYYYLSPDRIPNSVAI
Assay: 5-Lipoxygenase Assay (MC-9 mast cells, 5-HETE and LTC4 production)
Type: cell-based, murine
Conditions: MC9, 50 μM dose; MC-9 cells; read-out: % Inhibition LTC4
Listed compounds paired with reported inhibition at 50 µM
test_readout: inhibition at 50 µM (%)

- compound: "CC(=O)Oc1cc(OC(C)=O)c2c(-c3ccccc3)c3n(c(=O)c2c1)CCC3"
  data_value: 10
- compound: "CC(=O)Oc1cc(OC(C)=O)c2c(-c3ccccc3)c[nH]c(=O)c2c1"
  data_value: 16
- compound: "CC(=O)Oc1cc(OC(C)=O)c2c(-c3ccccc3)c(C)[nH]c(=O)c2c1"
  data_value: 27
- compound: "CC(=O)Oc1cc(OC(C)=O)c2c(C)c[nH]c(=O)c2c1"
  data_value: 40
- compound: "CC(=O)Oc1cc(OC(C)=O)c2c3c([nH]c(=O)c2c1)CCCC3"
  data_value: 41
- compound: "O=C1c2cc(O)cc(O)c2C(O)(c2ccccc2)C2CCCCN12 (stereo not drawn)"
  data_value: 32

---

Biological target: 5-lipoxygenase (Mus musculus, UniProt P48999)
Construct: Preincubate MC-9 cells (0.39 ml at 7.5×10^6 cells/ml) without or with test compound; endogenous in cells; host or cells: MC-9 murine mast cell clone (interleukin-3-dependent)
Test: 5-Lipoxygenase Assay (MC-9 mast cells, 5-HETE and LTC4 production)
Assay type: cell-based, murine
Conditions: MC9, 50 μM dose; MC-9 cells; read-out: % Inhibition 5-HETE
Bucketed by reported inhibition at 50 µM, buckets being low bin (below 20%), mid bin (20% to below 40%), high bin (40% or more)

- compound: "O=C1c2cc(O)cc(O)c2C(O)(c2ccccc2)C2CCCCN12 (stereo not drawn)"
  category: "mid bin"
- compound: "CC(=O)Oc1cc(OC(C)=O)c2c(-c3ccccc3)c3n(c(=O)c2c1)CCCC3"
  category: "mid bin"
- compound: "CC(=O)Oc1ccc2c(C)c3n(c(=O)c2c1OC(C)=O)CCCC3 [D]"
  category: "high bin"
- compound: "O=c1c2cc(O)cc(O)c2c(O)c2n1CCCC2"
  category: "low bin"
- compound: "CC(=O)Oc1ccc2c(c1)C(=O)N1CCCCC1C2(C)O (stereo not drawn)"
  category: "low bin"
- compound: "CC(=O)Oc1cc(OC(C)=O)c2c(C)c[nH]c(=O)c2c1"
  category: "high bin"
- compound: "CC(=O)Oc1cc(OC(C)=O)c2c(-c3ccccc3)c(C)[nH]c(=O)c2c1"
  category: "mid bin"
- compound: "CC(=O)Oc1ccc2c(=O)n3c(c(C)c2c1OC(C)=O)CCCC3"
  category: "high bin"
- compound: "CC(=O)Oc1cc(OC(C)=O)c2c(-c3ccccc3)c3n(c(=O)c2c1)CCC3"
  category: "low bin"
- compound: "Cc1c2n(c(=O)c3cc(O)cc(O)c13)CCCC2 [C]"
  category: "high bin"
- compound: "Cc1c2n(c(=O)c3cc(OC(=O)C(C)(C)C)cc(OC(=O)C(C)(C)C)c13)CCCC2"
  category: "high bin"
- compound: "CC(=O)Oc1cc(OC(C)=O)c2c(-c3ccccc3)c[nH]c(=O)c2c1"
  category: "low bin"
